B1: CDC25A (parent)
chain: KKFRTKSRTWAGEKSKREMYSRLK

# Variants of: B1
# testDescription: protein stability index of a GFP-peptide fusion (GPS, HEK-293T) (PSI 1-6); higher = more stable;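 note: lentivirally expressed fusions sorted by FACS into six bins by GFP to DsRed ratio, PSI derived from sequencing read proportions per bin multiplied by bin number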
# conditionSummary: c terminus: a fixed tail appended
// protein stability index lookup, one value per entry
metric: protein stability index

| mutationKey | observedResult |
| --- | --- |
| W10L | 3.53 |
| R22F | 2.99 |
| K6Q | 2.58 |
| E13Q | 3.34 |
| K14I | 2.71 |
| E18F | 2.88 |
| R22H | 3.02 |
| T5K | 3.12 |
| G12T | 2.6 |
| T9A | 2.79 |
| A11K | 2.7 |
| K14T | 3.1 |
| S7R | 3.57 |
| R4V | 3.79 |
| Y20L | 2.33 |
| K1P | 3.25 |
| L23V | 3.65 |
| F3M | 3.61 |
| S21P | 2.99 |
| A11C | 2.73 |
| T9K | 3.48 |
| L23T | 3.61 |
| L23N | 4.01 |
